src = ChEMBL document CHEMBL1125204

assay procedure: It is the ratio of Ki value to that of Km.
Format: ADME
measured quantity: Ratio

1. C=CCCCC(N)C[C@H]1OC(n2cnc3c(N)ncnc32)[C@H](O)[C@@H]1O (some centres undefined) | 15.9
2. Nc1ncnc2c1ncn2[C@@H]1O[C@H](CC2CCNC2)[C@@H](O)[C@H]1O (stereo in doubt; 6b) | 2.9

(a) Nc1ncnc2c1ncn2[C@@H]1O[C@H](CC(N)CCCC(=O)O)[C@@H](O)[C@H]1O (stereo in doubt; 3a)
(b) Nc1ncnc2c1ncn2[C@@H]1O[C@H](CSCC[C@H](N)C(=O)O)[C@@H](O)[C@H]1O
Task: Please indicate which item has the smaller measured Ratio: a versus b Answer format: the label of the selected item.
Result: b
